Biological target: Tyrosine-protein kinase ZAP-70 (Homo sapiens, UniProt P43403)
Sequence (P43403 whole entry): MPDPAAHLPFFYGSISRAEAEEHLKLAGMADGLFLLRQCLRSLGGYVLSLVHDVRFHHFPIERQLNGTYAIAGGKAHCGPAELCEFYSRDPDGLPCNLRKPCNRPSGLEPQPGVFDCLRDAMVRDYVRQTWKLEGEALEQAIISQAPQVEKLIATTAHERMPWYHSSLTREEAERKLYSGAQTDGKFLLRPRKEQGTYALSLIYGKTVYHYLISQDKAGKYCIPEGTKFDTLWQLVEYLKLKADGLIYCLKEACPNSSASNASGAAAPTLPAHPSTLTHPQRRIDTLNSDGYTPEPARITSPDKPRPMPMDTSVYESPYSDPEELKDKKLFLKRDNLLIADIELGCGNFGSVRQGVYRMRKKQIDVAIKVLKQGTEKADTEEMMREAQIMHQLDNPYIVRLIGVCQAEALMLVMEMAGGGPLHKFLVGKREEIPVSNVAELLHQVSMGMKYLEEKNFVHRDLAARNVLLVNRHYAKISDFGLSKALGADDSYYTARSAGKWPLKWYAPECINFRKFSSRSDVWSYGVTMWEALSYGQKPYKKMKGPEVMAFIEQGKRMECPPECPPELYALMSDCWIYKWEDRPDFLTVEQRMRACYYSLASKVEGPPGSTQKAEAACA
pIC50: −log10 of the molar value.
measurement.label: pIC50

>>> reading("CO[C@@H](C(=O)N1Cc2n[nH]c(NC(=O)c3ccc(N4CCN(C)CC4)cc3)c2C1)c1ccccc1")
"< 5.00"

* * *

Assay: Clearance in CD1 mouse at 10 mg/kg, iv
Type: ADME, organism-based
Set-up: dose 10 mg/kg, route intravenous
Settings: in vivo
measurement.label: clearance (mL/min/kg)

>>> reading("CO[C@@H](C(=O)N1Cc2n[nH]c(NC(=O)c3ccc(N4CCN(C)CC4)cc3)c2C1)c1ccccc1")
60

* * *

Biological target: Aurora kinase B (Homo sapiens, UniProt Q96GD4)
Sequence (Q96GD4 whole entry): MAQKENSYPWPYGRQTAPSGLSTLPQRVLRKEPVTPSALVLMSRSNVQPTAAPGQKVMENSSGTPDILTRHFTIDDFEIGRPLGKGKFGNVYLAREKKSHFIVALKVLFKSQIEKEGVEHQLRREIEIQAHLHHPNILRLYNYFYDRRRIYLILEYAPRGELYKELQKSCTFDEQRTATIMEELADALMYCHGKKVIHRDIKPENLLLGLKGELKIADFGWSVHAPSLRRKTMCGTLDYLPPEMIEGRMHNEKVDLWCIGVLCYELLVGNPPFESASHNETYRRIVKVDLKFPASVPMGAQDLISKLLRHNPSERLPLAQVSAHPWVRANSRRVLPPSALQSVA
measurement.label: IC50 (nM)

>>> reading("CN1CCN(c2ccc(C(=O)Nc3n[nH]c4c3CN(C(=O)[C@H](F)c3ccccc3)C4)cc2)CC1")
300

* * *

Assay: Cmax in CD1 mouse at 10 mg/kg, iv
Type: ADME, organism-based
Parameters: dose 10 mg/kg, route intravenous
Conditions: in vivo
measurement.label: Cmax (µM)

>>> reading("CO[C@@H](C(=O)N1Cc2n[nH]c(NC(=O)c3ccc(N4CCN(C)CC4)cc3)c2C1)c1ccccc1")
9.6

* * *

Biological target: Serine/threonine-protein kinase SULU (Caenorhabditis elegans, UniProt P46549)
Sequence (P46549 whole entry): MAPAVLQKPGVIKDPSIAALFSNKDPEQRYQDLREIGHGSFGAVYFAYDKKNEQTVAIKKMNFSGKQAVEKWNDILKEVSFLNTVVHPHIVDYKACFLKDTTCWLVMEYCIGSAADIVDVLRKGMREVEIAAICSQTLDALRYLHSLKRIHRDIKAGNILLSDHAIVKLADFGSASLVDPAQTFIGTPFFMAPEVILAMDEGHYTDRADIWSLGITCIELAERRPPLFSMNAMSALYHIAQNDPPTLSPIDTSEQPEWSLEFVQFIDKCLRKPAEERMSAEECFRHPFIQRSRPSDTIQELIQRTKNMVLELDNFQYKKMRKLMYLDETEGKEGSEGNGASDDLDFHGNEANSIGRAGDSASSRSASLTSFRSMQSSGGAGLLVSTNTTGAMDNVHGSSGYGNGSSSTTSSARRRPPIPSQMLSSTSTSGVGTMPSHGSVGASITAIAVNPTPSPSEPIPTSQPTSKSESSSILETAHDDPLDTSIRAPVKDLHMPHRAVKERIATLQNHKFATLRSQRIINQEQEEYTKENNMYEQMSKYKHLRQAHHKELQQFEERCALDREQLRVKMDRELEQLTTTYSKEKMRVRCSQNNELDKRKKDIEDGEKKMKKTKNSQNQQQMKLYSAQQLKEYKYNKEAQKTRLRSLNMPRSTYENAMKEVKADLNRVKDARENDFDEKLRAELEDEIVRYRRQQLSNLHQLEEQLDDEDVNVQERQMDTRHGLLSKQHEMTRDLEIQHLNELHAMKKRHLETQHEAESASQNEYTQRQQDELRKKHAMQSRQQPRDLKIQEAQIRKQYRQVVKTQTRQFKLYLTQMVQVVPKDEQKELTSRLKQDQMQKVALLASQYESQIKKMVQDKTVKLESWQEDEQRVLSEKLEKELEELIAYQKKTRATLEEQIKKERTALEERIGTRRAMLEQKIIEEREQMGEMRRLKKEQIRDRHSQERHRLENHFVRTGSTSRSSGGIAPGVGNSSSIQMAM
measurement.label: IC50

>>> reading("CO[C@@H](C(=O)N1Cc2n[nH]c(NC(=O)c3ccc(N4CCN(C)CC4)cc3)c2C1)c1ccccc1")
"> 10 µM"

* * *

Assay: Aqueous solubility at pH 5.5
Assay type: physicochemical
measurement.label: solubility

>>> reading("CO[C@@H](C(=O)N1Cc2n[nH]c(NC(=O)c3ccc(N4CCN(C)CC4)cc3)c2C1)c1ccccc1.Cl")
"> 15 mg/mL"

* * *

Target: Vascular endothelial growth factor receptor 3 (Homo sapiens)
Sequence (P35916 whole entry): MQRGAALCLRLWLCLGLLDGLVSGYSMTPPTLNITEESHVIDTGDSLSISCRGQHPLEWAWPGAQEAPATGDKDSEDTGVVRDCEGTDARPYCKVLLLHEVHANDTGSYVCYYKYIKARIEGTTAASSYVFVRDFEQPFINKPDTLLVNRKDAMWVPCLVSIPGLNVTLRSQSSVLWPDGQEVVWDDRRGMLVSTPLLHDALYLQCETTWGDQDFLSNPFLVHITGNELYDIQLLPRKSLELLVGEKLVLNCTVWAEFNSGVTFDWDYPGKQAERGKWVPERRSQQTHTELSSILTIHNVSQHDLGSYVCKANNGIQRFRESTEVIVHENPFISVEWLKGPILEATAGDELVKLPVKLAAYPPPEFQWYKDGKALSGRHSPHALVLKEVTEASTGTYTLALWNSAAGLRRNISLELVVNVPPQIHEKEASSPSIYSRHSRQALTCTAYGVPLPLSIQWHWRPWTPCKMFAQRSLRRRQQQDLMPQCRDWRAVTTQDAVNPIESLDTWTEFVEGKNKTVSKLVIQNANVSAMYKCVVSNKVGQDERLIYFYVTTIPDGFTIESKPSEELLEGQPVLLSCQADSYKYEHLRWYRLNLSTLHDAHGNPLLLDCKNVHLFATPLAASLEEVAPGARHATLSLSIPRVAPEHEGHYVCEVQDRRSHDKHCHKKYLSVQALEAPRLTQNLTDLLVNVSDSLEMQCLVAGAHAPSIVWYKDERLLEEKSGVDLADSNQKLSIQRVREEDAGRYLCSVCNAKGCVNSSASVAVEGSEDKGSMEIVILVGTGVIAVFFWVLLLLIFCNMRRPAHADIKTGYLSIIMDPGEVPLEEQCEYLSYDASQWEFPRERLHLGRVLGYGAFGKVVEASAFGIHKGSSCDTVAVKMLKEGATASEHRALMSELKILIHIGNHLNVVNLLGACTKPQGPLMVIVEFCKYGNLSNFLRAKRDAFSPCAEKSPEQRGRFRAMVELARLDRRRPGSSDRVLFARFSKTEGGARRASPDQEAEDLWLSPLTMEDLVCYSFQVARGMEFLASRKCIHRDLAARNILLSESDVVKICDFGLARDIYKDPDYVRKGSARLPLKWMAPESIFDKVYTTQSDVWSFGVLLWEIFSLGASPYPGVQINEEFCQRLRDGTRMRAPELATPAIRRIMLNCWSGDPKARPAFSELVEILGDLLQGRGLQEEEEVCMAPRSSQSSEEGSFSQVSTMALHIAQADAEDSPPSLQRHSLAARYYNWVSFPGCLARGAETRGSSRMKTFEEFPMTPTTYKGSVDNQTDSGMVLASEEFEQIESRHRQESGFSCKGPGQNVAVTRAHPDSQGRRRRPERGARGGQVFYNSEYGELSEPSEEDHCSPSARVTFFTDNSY
measurement.label: IC50 (nM)

>>> reading("CO[C@@H](C(=O)N1Cc2n[nH]c(NC(=O)c3ccc(N4CCN(C)CC4)cc3)c2C1)c1ccccc1")
161

* * *

Molecular target: Serine/threonine-protein kinase NIM1 (Homo sapiens)
Sequence (Q8IY84 whole entry): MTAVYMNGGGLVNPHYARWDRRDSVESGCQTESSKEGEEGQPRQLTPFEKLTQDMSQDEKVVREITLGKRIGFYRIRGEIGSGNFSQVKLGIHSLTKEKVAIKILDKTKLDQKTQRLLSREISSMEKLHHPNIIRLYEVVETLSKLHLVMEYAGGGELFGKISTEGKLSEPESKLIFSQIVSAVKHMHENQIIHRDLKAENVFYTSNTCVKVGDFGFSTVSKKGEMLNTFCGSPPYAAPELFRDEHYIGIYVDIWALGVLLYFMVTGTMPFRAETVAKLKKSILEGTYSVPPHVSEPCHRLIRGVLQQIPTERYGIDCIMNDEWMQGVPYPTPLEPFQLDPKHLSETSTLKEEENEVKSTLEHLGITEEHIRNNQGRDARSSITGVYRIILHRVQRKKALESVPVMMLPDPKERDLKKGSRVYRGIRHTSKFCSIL
pIC50: −log10 of the molar value.
measurement.label: pIC50

>>> reading("CO[C@@H](C(=O)N1Cc2n[nH]c(NC(=O)c3ccc(N4CCN(C)CC4)cc3)c2C1)c1ccccc1")
"< 5.00"

* * *

System: A2780
Assay: Antiproliferative activity against A2780 cells
Assay type: functional, cell-based
Details: Homo sapiens
measurement.label: IC50 (nM)

>>> reading("CO[C@@H](C(=O)N1Cc2[nH]nc(NC(=O)c3ccc(N4CCN(C)CC4)cc3)c2C1)c1ccccc1")
28

* * *

Target: Aurora kinase C (Homo sapiens)
Sequence (Q9UQB9 whole entry): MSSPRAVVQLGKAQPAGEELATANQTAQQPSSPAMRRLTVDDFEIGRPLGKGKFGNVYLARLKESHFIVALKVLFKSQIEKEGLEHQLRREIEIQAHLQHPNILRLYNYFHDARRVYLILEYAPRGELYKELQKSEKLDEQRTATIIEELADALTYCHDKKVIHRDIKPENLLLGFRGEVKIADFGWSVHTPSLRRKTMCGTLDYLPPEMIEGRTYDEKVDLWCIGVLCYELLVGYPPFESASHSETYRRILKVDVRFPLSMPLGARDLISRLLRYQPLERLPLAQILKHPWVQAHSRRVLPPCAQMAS
pIC50: −log10 of the molar value.
measurement.label: pIC50

>>> reading("CO[C@@H](C(=O)N1Cc2n[nH]c(NC(=O)c3ccc(N4CCN(C)CC4)cc3)c2C1)c1ccccc1")
7.21
